The origin of these recorded values is patent US4840950A.

Assay: rotorod performance test (R.R.), neurotoxicity and CNS impairment, as ratio to Ach
Conditions: mouse, in vivo; ratio of rotorod (R.R.):Ach ED50's; Ach ED50 on oral administration
From the text: The test procedures used to determine the analgesic activity of the compounds have been described in detail in the prior art and are as follows: The acetylcholine-induced abdominal constriction test, which is a primary analgesic screening test designed to measure the ability of a test agent to suppress acetylcholine-induced abdominal constriction in mice, described by Collier et al., Brit. J. Pharmacol, Chemotherap. […]
QUANTITY: selectivity ratio
Answer with a number only.

{"COMPOUND": "COc1ccc(C(=O)c2cccc3c2ccn3CCCN2CCOCC2)cc1.Cl [Ex. 1B, hydrochloride]", "selectivity ratio": 2.8}

--- query ---
Challenge: Identify selectivity ratio associated with the compound COc1ccc(C(=O)c2cccc3c2ccn3CCN2CCOCC2)cc1.Cl [Ex. 1A, hydrochloride]
Response given: 3.1
